The measurements presented in this section are drawn from patent US20230118577A1.

Target: GABAA α4β3δ (Homo sapiens, UniProt P28472+P48169)
Construct: expressed in transfected cells; host or cells: HEK293 expressing the Tetracycline repressor protein
Sequence (P48169 36-554): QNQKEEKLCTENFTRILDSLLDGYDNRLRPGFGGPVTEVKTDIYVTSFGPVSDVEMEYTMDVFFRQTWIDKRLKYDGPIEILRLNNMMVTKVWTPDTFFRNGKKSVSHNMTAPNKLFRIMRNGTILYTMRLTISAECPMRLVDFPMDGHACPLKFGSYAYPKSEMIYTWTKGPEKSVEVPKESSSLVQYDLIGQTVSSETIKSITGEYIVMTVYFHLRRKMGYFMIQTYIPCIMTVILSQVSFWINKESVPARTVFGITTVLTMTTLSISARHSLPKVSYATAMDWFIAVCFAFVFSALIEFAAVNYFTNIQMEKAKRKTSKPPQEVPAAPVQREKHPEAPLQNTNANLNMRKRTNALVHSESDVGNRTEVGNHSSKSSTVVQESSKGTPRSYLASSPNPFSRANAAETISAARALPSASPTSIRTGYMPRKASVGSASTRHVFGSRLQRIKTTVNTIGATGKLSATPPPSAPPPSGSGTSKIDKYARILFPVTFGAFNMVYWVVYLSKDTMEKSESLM
Sequence (P28472 26-473): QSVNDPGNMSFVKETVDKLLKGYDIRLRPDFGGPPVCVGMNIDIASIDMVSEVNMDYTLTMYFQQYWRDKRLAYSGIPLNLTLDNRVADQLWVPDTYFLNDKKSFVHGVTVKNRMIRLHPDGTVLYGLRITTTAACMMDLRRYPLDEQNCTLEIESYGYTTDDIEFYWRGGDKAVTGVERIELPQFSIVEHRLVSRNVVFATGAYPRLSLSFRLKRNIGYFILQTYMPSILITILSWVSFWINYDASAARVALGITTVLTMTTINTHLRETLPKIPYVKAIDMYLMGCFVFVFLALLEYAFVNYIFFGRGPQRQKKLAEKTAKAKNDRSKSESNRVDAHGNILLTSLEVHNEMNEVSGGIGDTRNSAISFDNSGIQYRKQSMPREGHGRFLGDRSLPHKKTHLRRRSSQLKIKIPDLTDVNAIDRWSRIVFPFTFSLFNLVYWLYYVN
Sequence (O14764 17-452 partner limits assumed): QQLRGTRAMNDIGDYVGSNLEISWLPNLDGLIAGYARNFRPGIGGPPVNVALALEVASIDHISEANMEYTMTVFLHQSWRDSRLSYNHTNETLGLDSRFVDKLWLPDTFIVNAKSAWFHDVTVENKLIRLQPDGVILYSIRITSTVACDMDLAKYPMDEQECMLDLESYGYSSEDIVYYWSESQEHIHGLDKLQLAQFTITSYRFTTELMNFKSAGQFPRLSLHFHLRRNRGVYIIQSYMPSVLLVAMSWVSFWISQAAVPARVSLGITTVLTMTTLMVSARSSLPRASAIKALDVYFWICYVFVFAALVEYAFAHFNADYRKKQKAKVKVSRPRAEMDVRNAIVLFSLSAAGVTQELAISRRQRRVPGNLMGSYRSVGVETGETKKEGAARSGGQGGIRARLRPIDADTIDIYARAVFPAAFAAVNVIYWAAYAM
Experiment: Automated patch clamp electrophysiology (SyncroPatch), PAM mode, GABAA α4β3δ cell line
Assay type: cell-based
Settings: maximum fold increase in current relative to Allopregnanolone, PAM mode, GABA EC20 10 μM; read-out: GABAA α4β3δ PAM % Emax (to Allo)
endpoint: Emax

compound | endpoint | observed.value
C[C@@]1(O)CC[C@H]2[C@H](CC[C@@H]3[C@@H]2CC[C@]2(C)[C@@H](C4(CF)COC4)CC[C@@H]32)C1 | Emax | 50 to 90%
CC(=O)[C@H]1CC[C@H]2[C@@H]3CC[C@H]4C[C@H](O)CC[C@]4(C)[C@H]3CC[C@]12C [allopregnanolone, 5α-pregnane-3α-ol-20-one, reference compound] | Emax | > 90%
C[C@@]1(O)CC[C@H]2[C@H](CC[C@@H]3[C@@H]2CC[C@]2(C)[C@@H](C4(C#N)COC4)CC[C@@H]32)C1 | Emax | 50 to 90%
C#CC1([C@H]2CC[C@H]3[C@@H]4CC[C@@H]5C[C@](C)(O)CC[C@@H]5[C@H]4CC[C@]23C)COC1 | Emax | 50 to 90%
C[C@@]1(O)CC[C@H]2[C@H](CC[C@@H]3[C@@H]2CC[C@]2(C)[C@@H](C4(C5CC5)COC4)CC[C@@H]32)C1 | Emax | > 90%
C[C@@]1(O)CC[C@H]2[C@H](CC[C@@H]3[C@@H]2CC[C@]2(C)[C@@H](C4(CC(F)(F)F)COC4)CC[C@@H]32)C1 | Emax | > 90%

* * *

Molecular target: GABAA α1β2γ2 (Homo sapiens, UniProt P14867+P47870)
Construct: expressed in transfected cells; host or cells: HEK293 expressing the Tetracycline repressor protein
Sequence (P14867 28-456): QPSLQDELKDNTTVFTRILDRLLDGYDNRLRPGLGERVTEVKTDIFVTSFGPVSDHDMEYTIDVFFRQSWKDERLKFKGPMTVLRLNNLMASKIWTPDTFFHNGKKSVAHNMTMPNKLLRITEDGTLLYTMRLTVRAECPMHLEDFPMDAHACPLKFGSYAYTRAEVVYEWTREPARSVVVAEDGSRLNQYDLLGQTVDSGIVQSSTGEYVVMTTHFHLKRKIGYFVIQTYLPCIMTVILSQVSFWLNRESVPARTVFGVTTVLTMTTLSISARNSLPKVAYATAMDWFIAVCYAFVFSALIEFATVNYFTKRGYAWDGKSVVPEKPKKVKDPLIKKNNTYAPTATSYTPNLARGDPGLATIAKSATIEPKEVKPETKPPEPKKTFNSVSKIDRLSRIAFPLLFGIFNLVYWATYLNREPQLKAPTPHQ
Sequence (P47870 25-512 limits assumed): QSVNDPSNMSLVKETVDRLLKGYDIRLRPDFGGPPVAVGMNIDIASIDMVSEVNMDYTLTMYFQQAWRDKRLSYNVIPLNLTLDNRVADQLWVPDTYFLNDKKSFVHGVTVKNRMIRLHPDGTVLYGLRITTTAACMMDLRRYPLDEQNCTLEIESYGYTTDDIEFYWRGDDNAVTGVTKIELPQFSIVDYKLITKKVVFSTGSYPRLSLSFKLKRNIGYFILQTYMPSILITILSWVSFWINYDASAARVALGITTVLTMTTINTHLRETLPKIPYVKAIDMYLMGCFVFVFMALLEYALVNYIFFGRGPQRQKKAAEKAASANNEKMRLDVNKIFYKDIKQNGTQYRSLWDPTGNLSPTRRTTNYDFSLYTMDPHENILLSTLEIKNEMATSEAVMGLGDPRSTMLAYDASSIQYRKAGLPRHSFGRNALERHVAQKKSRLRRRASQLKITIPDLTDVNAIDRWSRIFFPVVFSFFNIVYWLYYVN
Sequence (P18507 40-475 partner): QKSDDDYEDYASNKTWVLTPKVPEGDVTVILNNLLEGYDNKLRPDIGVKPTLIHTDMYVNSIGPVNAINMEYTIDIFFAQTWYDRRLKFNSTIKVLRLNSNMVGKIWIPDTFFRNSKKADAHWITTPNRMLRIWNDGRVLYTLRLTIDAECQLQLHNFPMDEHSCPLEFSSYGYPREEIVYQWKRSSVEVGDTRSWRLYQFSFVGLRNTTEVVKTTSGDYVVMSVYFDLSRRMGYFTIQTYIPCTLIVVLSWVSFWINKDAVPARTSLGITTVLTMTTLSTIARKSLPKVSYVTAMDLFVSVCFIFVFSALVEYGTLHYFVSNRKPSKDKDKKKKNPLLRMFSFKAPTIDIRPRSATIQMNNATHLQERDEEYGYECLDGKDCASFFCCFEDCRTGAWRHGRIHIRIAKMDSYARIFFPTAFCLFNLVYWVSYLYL
Test: Automated patch clamp electrophysiology (SyncroPatch), PAM mode, GABAA α1β2γ2 cell line
Type: cell-based
Conditions: maximum fold increase in current relative to Allopregnanolone, PAM mode, GABA EC20 14 μM; read-out: GABAA α1β2γ2 PAM % Emax (to Allo)

structure.as.smiles | Emax
C[C@@]1(O)CC[C@H]2[C@H](CC[C@@H]3[C@@H]2CC[C@]2(C)[C@@H](C4(CC5CC5)COC4)CC[C@@H]32)C1 | 50 to 90%
C#CC1([C@H]2CC[C@H]3[C@@H]4CC[C@@H]5C[C@](C)(O)CC[C@@H]5[C@H]4CC[C@]23C)COC1 | > 90%
C[C@@]1(O)CC[C@H]2[C@H](CC[C@@H]3[C@@H]2CC[C@]2(C)[C@@H](C4COC4)CC[C@@H]32)C1 | 50 to 90%

* * *

Biological target: GABAA α1β2γ2 (Homo sapiens, UniProt P14867+P47870)
Construct: expressed in transfected cells; host or cells: HEK293 expressing the Tetracycline repressor protein
Experiment: Automated patch clamp electrophysiology (SyncroPatch), PAM mode, GABAA α1β2γ2 cell line
Format: cell-based
pEC50: −log10 of the molar value.

compound | pEC50
CC(=O)[C@H]1CC[C@H]2[C@@H]3CC[C@H]4C[C@H](O)CC[C@]4(C)[C@H]3CC[C@]12C [allopregnanolone, 5α-pregnane-3α-ol-20-one, reference compound] | > 6.30

* * *

Target: GABAA α1β2γ2 (Homo sapiens, UniProt P14867+P47870)
Construct: expressed in transfected cells; host or cells: HEK293 expressing the Tetracycline repressor protein
Experiment: Automated patch clamp electrophysiology (SyncroPatch), PAM mode, GABAA α1β2γ2 cell line
Type: cell-based
Conditions: PAM mode, HEK293 cells expressing human GABAA α1β2γ2, GABA EC20 14 μM; read-out: GABAA α1β2γ2 PAM EC50
pEC50: −log10 of the molar value.

compound | pEC50
CC1([C@H]2CC[C@H]3[C@@H]4CC[C@H]5C[C@H](O)CC[C@]5(C)[C@H]4CC[C@]23C)COC1 [Example 5] | 6.00 to 6.30
C#CC1([C@H]2CC[C@H]3[C@@H]4CC[C@@H]5C[C@](C)(O)CC[C@@H]5[C@H]4CC[C@]23C)COC1 [Example 22] | > 6.30
CC1([C@H]2CC[C@H]3[C@@H]4CC[C@H]5C[C@](C)(O)CC[C@]5(C)[C@H]4CC[C@]23C)COC1 [Example 1] | 6.00 to 6.30
C[C@@]1(O)CC[C@H]2[C@H](CC[C@@H]3[C@@H]2CC[C@]2(C)[C@@H](C4(C(F)F)COC4)CC[C@@H]32)C1 [Example 19] | > 6.30
C[C@@]1(O)CC[C@H]2[C@H](CC[C@@H]3[C@@H]2CC[C@]2(C)[C@@H](C4(C#N)COC4)CC[C@@H]32)C1 [Example 18] | > 6.30
C[C@@]1(O)CC[C@H]2[C@H](CC[C@@H]3[C@@H]2CC[C@]2(C)[C@@H](C4(CC5CC5)COC4)CC[C@@H]32)C1 [Example 9] | > 6.30

* * *

Emax values, listed per item
Biological target: GABAA α4β3δ (Homo sapiens, UniProt P28472+P48169)
Construct: expressed in transfected cells; host or cells: HEK293 expressing the Tetracycline repressor protein
Test: Automated patch clamp electrophysiology (SyncroPatch), PAM mode, GABAA α4β3δ cell line
Type: cell-based
Settings: maximum fold increase in current relative to Allopregnanolone, PAM mode, GABA EC20 10 μM; read-out: GABAA α4β3δ PAM % Emax (to Allo)

compound | Emax
CC1([C@H]2CC[C@H]3[C@@H]4CC[C@@H]5C[C@H](O)CC[C@]5(C)[C@H]4CC[C@]23C)COC1 [Example 6] | > 90%
CC1([C@H]2CC[C@H]3[C@@H]4CC[C@H]5C[C@H](O)CC[C@]5(C)[C@H]4CC[C@]23C)COC1 [Example 5] | < 50%
C[C@@]1(O)CC[C@H]2[C@H](CC[C@@H]3[C@@H]2CC[C@]2(C)[C@@H](C4(Cn5cc(C#N)cn5)COC4)CC[C@@H]32)C1 [Example 15] | > 90%
C[C@@]1(O)CC[C@H]2[C@H](CC[C@@H]3[C@@H]2CC[C@]2(C)[C@@H](C4(F)COC4)CC[C@@H]32)C1 [Example 10] | > 90%
CC1([C@H]2CC[C@H]3[C@@H]4CC[C@@H]5C[C@](C)(O)CC[C@@H]5[C@H]4CC[C@]23C)COC1 [Example 2] | > 90%
CC1([C@H]2CC[C@H]3[C@@H]4CC[C@H]5C[C@H](O)CC[C@]5(C)[C@H]4CC[C@]23C)CCO1 (stereo partly drawn) [Example 3] | < 50%
